meta.source: ChEMBL document CHEMBL3745677

runDescription: Clearance in cynomolgus monkey at 0.91 mg/kg, iv by LC-MS/MS analysis
Assay type: ADME, organism-based, Macaca fascicularis
setupConditions: in vivo
endpointName: clearance (mL/min/kg)
A number alone suffices; assume mL/min/kg.

Q) Using the record for Cn1cc(C(=O)O)c2ccc(N3CCC(OCc4c(-c5c(Cl)cccc5Cl)noc4C4CC4)CC3)cc21 , report its clearance.
A) 6

====

runDescription: Terminal half life in Sprague-Dawley rat at 3 mg/kg, po by LC-MS/MS analysis
Assay type: ADME, organism-based
setupConditions: in vivo, read-out: beta t1/2 (converted)
endpointName: half-life (h)
A number alone suffices; assume h.

Q) Using the record for Cn1cc(C(=O)O)c2ccc(N3CCC(OCc4c(-c5c(Cl)cccc5Cl)noc4C4CC4)CC3)cc21 [TERN-101] , report its half-life.
A) 2

====

runDescription: AUC (0 to 24 hrs) in beagle dog at 1 mg/kg, iv by LC-MS/MS analysis
Type: ADME, organism-based, Canis lupus familiaris
Parameters: time < 24 hr, dose 1 mg/kg, route intravenous
setupConditions: in vivo
endpointName: AUC(0-t) at 24 h (ng·h/mL)
A number alone suffices; assume ng·h/mL.

Q) Using the record for Cn1cc(C(=O)O)c2ccc(N3CCC(OCc4c(-c5c(Cl)cccc5Cl)noc4C4CC4)CC3)cc21 , report its AUC(0-t) at 24 h.
A) 1780

====

runDescription: Tmax in cynomolgus monkey at 3 mg/kg, po by LC-MS/MS analysis
Type: ADME, organism-based, Macaca fascicularis
setupConditions: in vivo
endpointName: Tmax (h)
A number alone suffices; assume h.

Q) Using the record for Cn1cc(C(=O)O)c2ccc(N3CCC(OCc4c(-c5c(Cl)cccc5Cl)noc4C4CC4)CC3)cc21 , report its Tmax.
A) 3.33

====

runDescription: Oral bioavailability in cynomolgus monkey at 3 mg/kg by LC-MS/MS analysis
Assay type: ADME, organism-based, Macaca fascicularis
setupConditions: in vivo
endpointName: bioavailability

Q) Using the record for Cn1cc(C(=O)O)c2ccc(N3CCC(OCc4c(-c5c(Cl)cccc5Cl)noc4C4CC4)CC3)cc21 , report its bioavailability.
A) 24%

====

runDescription: Initial plasma concentration in beagle dog at 1 mg/kg, iv by LC-MS/MS analysis
Format: ADME, organism-based, Canis lupus familiaris
endpointName: C0 (ng/mL)
A number alone suffices; assume ng/mL.

Q) Using the record for Cn1cc(C(=O)O)c2ccc(N3CCC(OCc4c(-c5c(Cl)cccc5Cl)noc4C4CC4)CC3)cc21 [TERN-101] , report its C0.
A) 1180

====

runDescription: AUC (0 to 24 hrs) in Sprague-Dawley rat at 3 mg/kg, po by LC-MS/MS analysis
Assay type: ADME, organism-based
Parameters: time < 24 hr, dose 3 mg/kg, route oral
setupConditions: in vivo
endpointName: AUC(0-t) at 24 h (ng·h/mL)
A number alone suffices; assume ng·h/mL.

Q) Using the record for Cn1cc(C(=O)O)c2ccc(N3CCC(OCc4c(-c5c(Cl)cccc5Cl)noc4C4CC4)CC3)cc21 , report its AUC(0-t) at 24 h.
A) 365

====

runDescription: Cmax in cynomolgus monkey at 3 mg/kg, po by LC-MS/MS analysis
Format: ADME, organism-based, Macaca fascicularis
Design: dose 3 mg/kg, route oral
setupConditions: in vivo
endpointName: Cmax (ng/mL)
A number alone suffices; assume ng/mL.

Q) Using the record for Cn1cc(C(=O)O)c2ccc(N3CCC(OCc4c(-c5c(Cl)cccc5Cl)noc4C4CC4)CC3)cc21 [TERN-101] , report its Cmax.
A) 221
